Ref: patent US20250017878A1

Target: β2-adrenergic receptor (Mus musculus, UniProt P18762)
Sequence (P18762 whole entry): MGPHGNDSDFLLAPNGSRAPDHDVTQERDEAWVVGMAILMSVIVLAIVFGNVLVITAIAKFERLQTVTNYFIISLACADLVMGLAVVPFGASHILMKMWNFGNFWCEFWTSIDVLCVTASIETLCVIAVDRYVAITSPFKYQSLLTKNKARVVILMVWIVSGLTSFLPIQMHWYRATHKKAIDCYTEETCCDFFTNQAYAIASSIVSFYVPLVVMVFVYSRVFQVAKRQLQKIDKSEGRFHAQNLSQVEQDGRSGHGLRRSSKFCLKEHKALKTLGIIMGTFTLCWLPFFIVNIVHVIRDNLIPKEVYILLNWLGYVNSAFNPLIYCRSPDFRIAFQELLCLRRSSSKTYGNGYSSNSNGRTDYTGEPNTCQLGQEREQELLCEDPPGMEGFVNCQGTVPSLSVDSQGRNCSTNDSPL
Assay: Upregulation of β2-adrenergic receptor density by period of administration, Example 8 / Table 2
Format: in vivo, mice
Parameters: from tissue
Conditions: 2 days administration

compound: CC(C)(C)NCC(O)c1ccc(O)c(CO)c1 (stereo not shown)
Increased β2AR density: no
--
compound: C=CCc1ccccc1OCC(O)CNC(C)C (stereo not shown)
Increased β2AR density: no
--
compound: CC(C)(C)NCC(O)COc1cccc2c1CC(O)C(O)C2 (stereo not shown)
Increased β2AR density: yes
--
compound: COc1ccccc1OCCNCC(O)COc1cccc2[nH]c3ccccc3c12 (stereo not shown)
Increased β2AR density: no
